Where these numbers come from: paper PMC4336329

biological target: human ether-à-go-go-related gene (hERG) potassium channel (human, UniProt Q12809); test: primary screen, population patch clamp on CHO cells stably expressing hERG; higher = less effect of the substance;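 further: peak tail current of the secondary pulse compared with the same well before compound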
Sequence (Q12809 whole entry, looked up): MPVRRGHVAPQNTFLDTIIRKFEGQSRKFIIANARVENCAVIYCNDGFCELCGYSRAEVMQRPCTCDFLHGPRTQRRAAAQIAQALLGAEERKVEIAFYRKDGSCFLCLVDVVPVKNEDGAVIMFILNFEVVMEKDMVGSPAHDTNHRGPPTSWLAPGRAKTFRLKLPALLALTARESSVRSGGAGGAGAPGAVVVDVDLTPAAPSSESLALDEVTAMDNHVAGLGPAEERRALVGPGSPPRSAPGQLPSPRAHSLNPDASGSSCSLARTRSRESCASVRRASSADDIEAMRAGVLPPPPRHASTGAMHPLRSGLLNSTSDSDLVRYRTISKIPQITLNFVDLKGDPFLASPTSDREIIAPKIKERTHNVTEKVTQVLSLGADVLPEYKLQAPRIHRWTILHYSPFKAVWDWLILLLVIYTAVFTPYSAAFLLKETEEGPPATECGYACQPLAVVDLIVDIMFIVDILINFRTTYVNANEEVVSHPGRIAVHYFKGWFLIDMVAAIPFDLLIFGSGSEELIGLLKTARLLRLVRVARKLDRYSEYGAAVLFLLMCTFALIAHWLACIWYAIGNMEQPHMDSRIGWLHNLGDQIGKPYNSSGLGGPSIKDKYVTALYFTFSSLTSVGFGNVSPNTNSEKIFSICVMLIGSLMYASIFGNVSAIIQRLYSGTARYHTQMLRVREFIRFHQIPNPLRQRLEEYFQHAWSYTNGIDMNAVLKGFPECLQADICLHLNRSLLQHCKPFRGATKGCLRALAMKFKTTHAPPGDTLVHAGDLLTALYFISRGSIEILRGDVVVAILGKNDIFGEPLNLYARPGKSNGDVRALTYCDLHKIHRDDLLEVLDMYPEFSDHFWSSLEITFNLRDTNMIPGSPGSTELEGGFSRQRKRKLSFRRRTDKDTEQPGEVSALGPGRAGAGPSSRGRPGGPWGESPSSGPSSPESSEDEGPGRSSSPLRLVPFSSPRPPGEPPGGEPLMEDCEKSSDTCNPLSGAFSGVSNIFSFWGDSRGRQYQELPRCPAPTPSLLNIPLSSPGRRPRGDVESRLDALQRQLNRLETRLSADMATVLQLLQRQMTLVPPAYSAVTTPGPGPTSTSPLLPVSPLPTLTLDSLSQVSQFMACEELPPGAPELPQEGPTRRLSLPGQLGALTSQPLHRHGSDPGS
The whole screen tested about 310,000 compounds, of which about 14,000 (4.5%) showed an effect of 50% or more. Effects have a minus sign here. For the sample, strong results were picked, then their nearest neighbours and some compounds at random.
value_kind: hERG current change (%, negative = inhibition) at 10uM (%)
Note: unit % is implicit; provide only the numeric part.

Query hERG current change (%, negative = inhibition) at 10uM on human ether-à-go-go-related gene (hERG) potassium channel (human, UniProt Q12809) for O=C(CC1SC(=Nc2ccc(OC(F)F)cc2)N(CCN2CCOCC2)C1=O)Nc1ccc(F)cc1F (stereo not drawn) -82.9

Query hERG current change (%, negative = inhibition) at 10uM on human ether-à-go-go-related gene (hERG) potassium channel (human, UniProt Q12809) for O=C(O)c1cc(-c2cccs2)[nH]n1 15.5

Query hERG current change (%, negative = inhibition) at 10uM on human ether-à-go-go-related gene (hERG) potassium channel (human, UniProt Q12809) for COc1ccc(OC)c(CNc2ccc([N+](=O)[O-])cc2C)c1 3.55

----------
Exercise: for every item that follows, state its recorded hERG current change (%, negative = inhibition) at 10uM.
target: human ether-à-go-go-related gene (hERG) potassium channel (human, UniProt Q12809); test: primary screen, population patch clamp on CHO cells stably expressing hERG; higher = less effect of the substance;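 further: peak tail current of the secondary pulse compared with the same well before compound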
Hit rate of the full screen: of about 310,000 compounds, about 14,000 (4.5%) showed an effect of 50% or more. The effect is printed as a negative number. The entries come from a sample that favours strong results as a whole.
Note: unit % is implicit; provide only the numeric part.

Give its hERG current change (%, negative = inhibition) at 10uM value. Item: Cc1ccc(NC(=O)CSc2nnc(C3COc4ccccc4O3)o2)c(Cl)c1 (stereo not drawn) 12.5

Give its hERG current change (%, negative = inhibition) at 10uM value. Item: CCOC(=O)N1CCC(N2Cc3cccc(C(=O)Nc4ccc(F)cc4)c3C2=O)CC1 -55.3

Give its hERG current change (%, negative = inhibition) at 10uM value. Item: C=CCOCCN(CC)CC -21.3

Give its hERG current change (%, negative = inhibition) at 10uM value. Item: CN1CCN(c2ccc(Cl)cc2NC(=O)/C=C/c2cccc(F)c2)CC1 -69.9

Give its hERG current change (%, negative = inhibition) at 10uM value. Item: CCOC(=O)N1CCC(N2Cc3cccc(C(=O)Nc4ccc(N(CC)CC)cc4C)c3C2=O)CC1 -7.16

Give its hERG current change (%, negative = inhibition) at 10uM value. Item: CN1CCN(c2ccc(Cl)cc2NC(=O)/C=C/c2ccc(F)cc2)CC1 -75.6

Give its hERG current change (%, negative = inhibition) at 10uM value. Item: CCOC(=O)N1CCC(N2Cc3cccc(C(=O)NC(C)c4ccc5c(c4)OCCO5)c3C2=O)CC1 (stereo not drawn) -67.5

Give its hERG current change (%, negative = inhibition) at 10uM value. Item: CCOC(=O)N1CCC(N2Cc3cccc(C(=O)NCc4ccccn4)c3C2=O)CC1 -34.5

Give its hERG current change (%, negative = inhibition) at 10uM value. Item: CN1c2ccccc2Oc2nnc(N3CCN(Cc4ccccc4)CC3)cc21 -78

Give its hERG current change (%, negative = inhibition) at 10uM value. Item: COc1ccc(C(=O)NC(C)CCc2ccccc2)cc1 (stereo not drawn) -2.64

Give its hERG current change (%, negative = inhibition) at 10uM value. Item: CN1CCN(c2ccc(S(=O)(=O)N3CCCCC3)cc2NC(=O)/C=C/c2ccc(Cl)c([N+](=O)[O-])c2)CC1 -17.4

Give its hERG current change (%, negative = inhibition) at 10uM value. Item: O=C(Nc1cccc(F)c1)c1cccc2c1C(=O)N(C1CCCCC1)C2 12.2

Give its hERG current change (%, negative = inhibition) at 10uM value. Item: CC(=O)Nc1ccc(S(=O)(=O)Nc2c(C)nn(-c3ccccc3)c2C)cc1 -7.68

Give its hERG current change (%, negative = inhibition) at 10uM value. Item: CCOc1ccc2oc(C(=O)NC(C)(C)CC)c(C)c2c1 -3

Give its hERG current change (%, negative = inhibition) at 10uM value. Item: CCN1CCN(Cc2nc3c(c(=O)[nH]c(=O)n3C)n2Cc2ccccc2Cl)CC1 14.8

Give its hERG current change (%, negative = inhibition) at 10uM value. Item: CC(C)(C)NC(=O)/C(=C\c1ccccc1F)NC(=O)c1ccc([N+](=O)[O-])cc1 -35.3

Give its hERG current change (%, negative = inhibition) at 10uM value. Item: CSc1nc(C)cc(C)c1C(N)=O 8.49

Give its hERG current change (%, negative = inhibition) at 10uM value. Item: CCc1nnc(NC(=O)C(=O)NCCOC(=O)c2ccccc2Cl)s1 5.68

Give its hERG current change (%, negative = inhibition) at 10uM value. Item: CC12CCC(=O)N1C(C(=O)Nc1ccccc1N1CCCCC1)CS2 (stereo not drawn) -15.9

Give its hERG current change (%, negative = inhibition) at 10uM value. Item: O=C(NCCCCc1ccccc1)c1ccccc1Cl -9.21

Give its hERG current change (%, negative = inhibition) at 10uM value. Item: COc1ccc(C(=O)NC(C)CCc2ccccc2)c(O)c1 (stereo not drawn) -55.5

----------
Exercise: for every item that follows, state its recorded hERG current change (%, negative = inhibition) at 10uM.
molecular target: human ether-à-go-go-related gene (hERG) potassium channel (human); experiment: primary screen, population patch clamp on CHO cells stably expressing hERG; higher = less effect of the substance;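 further: peak tail current of the secondary pulse compared with the same well before compound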
Out of some 310,000 compounds screened, about 14,000 (4.5%) showed an effect of 50% or more. The effect is printed as a negative number. Many of the other results were omitted from the sample, so strong results are more common in it than they were.
Note: unit % is implicit; provide only the numeric part.

Query hERG current change (%, negative = inhibition) at 10uM on human ether-à-go-go-related gene (hERG) potassium channel (human) for COCCN(CCOC)c1nc(-c2ccc(C)cc2)nc2ccccc12.Cl -65.4

Query hERG current change (%, negative = inhibition) at 10uM on human ether-à-go-go-related gene (hERG) potassium channel (human) for COc1ccccc1-c1cc(C(F)(F)F)nc(S(=O)(=O)CCCC(=O)N2CCOCC2)n1 2.47

Query hERG current change (%, negative = inhibition) at 10uM on human ether-à-go-go-related gene (hERG) potassium channel (human) for CN(C)c1ccc(N/C=C/C(=O)C(C)(C)C)cc1 15.9

Query hERG current change (%, negative = inhibition) at 10uM on human ether-à-go-go-related gene (hERG) potassium channel (human) for COC(=O)CCCCC1SCC(NC(=O)OC)C1NC(=O)OC (stereo not drawn) 2.09

Query hERG current change (%, negative = inhibition) at 10uM on human ether-à-go-go-related gene (hERG) potassium channel (human) for Cc1ccc(-c2csc(NC(=O)C3=NN(C4CCS(=O)(=O)C4)C(=O)CC3)n2)cc1 (stereo not drawn) -3.9

Query hERG current change (%, negative = inhibition) at 10uM on human ether-à-go-go-related gene (hERG) potassium channel (human) for COc1cccc(-c2nc(NCC3CCCO3)c3ccccc3n2)c1O (stereo not drawn) -21.2

Query hERG current change (%, negative = inhibition) at 10uM on human ether-à-go-go-related gene (hERG) potassium channel (human) for Cc1cc(N2CCCC2=O)ccc1S(=O)(=O)Nc1c(C)nn(C)c1C 12.3

Query hERG current change (%, negative = inhibition) at 10uM on human ether-à-go-go-related gene (hERG) potassium channel (human) for O=C(OCc1ccc([N+](=O)[O-])cc1)C1CCN(S(=O)(=O)c2ccccc2)CC1 -37.3

Query hERG current change (%, negative = inhibition) at 10uM on human ether-à-go-go-related gene (hERG) potassium channel (human) for c1cncc(-c2nc(NCC3CCCO3)c3ccccc3n2)c1 (stereo not drawn) 7.02

Query hERG current change (%, negative = inhibition) at 10uM on human ether-à-go-go-related gene (hERG) potassium channel (human) for CC/C(=N\NC(=O)c1c[nH]c2ccccc12)c1cccs1 10.9

Query hERG current change (%, negative = inhibition) at 10uM on human ether-à-go-go-related gene (hERG) potassium channel (human) for O=C(COc1ccc(Br)cc1Cl)NNC(=O)c1ccccc1 2.57

Query hERG current change (%, negative = inhibition) at 10uM on human ether-à-go-go-related gene (hERG) potassium channel (human) for CC1(C)CC(=O)C=C(Nc2ccc([N+](=O)[O-])cc2)C1 -16.6
